# system tested: purified murine COX-2 (Mus musculus, UniProt Q05769)
# Sequence (Q05769 18-604): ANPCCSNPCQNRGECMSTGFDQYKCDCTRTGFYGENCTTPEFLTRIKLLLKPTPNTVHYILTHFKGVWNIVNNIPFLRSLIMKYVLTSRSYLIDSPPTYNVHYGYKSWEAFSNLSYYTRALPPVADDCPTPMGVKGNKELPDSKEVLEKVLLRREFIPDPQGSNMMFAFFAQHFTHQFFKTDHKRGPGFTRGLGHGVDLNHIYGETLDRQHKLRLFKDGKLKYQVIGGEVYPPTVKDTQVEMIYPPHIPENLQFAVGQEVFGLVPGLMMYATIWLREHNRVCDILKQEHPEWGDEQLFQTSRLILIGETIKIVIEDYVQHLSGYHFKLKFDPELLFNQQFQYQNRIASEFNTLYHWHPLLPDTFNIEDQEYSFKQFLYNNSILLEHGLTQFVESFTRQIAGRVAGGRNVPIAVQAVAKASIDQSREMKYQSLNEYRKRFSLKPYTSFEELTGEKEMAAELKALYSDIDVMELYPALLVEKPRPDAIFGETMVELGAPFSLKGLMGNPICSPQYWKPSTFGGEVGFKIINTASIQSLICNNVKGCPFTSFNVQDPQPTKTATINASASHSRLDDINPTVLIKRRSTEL
# procedure details: Inhibition of mCOX-2-dependent oxygenation of 2-AG and AA by lumiracoxib and derivatives in vitro
# Format: biochemical
# Set-up: made in house; host or cells: insect cells; dose or concentration left out as unconfirmed
# assay setup: read-out: AA IC50 (mM)
Recorded inhibition by entry

Ask: Fill in: inhibition of "O=C(O)Cc1ccccc1Nc1c(F)cccc1Cl" is ___
Result: < 50%

Ask: Fill in: inhibition of "Cc1ccc(Nc2c(F)cccc2Cl)c(CC(=O)O)c1" is ___
Result: < 50%

Ask: Fill in: inhibition of "O=C(O)Cc1ccccc1Nc1ccccc1Cl" is ___
Result: < 50%

Ask: Fill in: inhibition of "O=C(O)Cc1ccccc1Nc1c(F)cccc1F" is ___
Result: < 50%

Ask: Fill in: inhibition of "O=C(O)Cc1ccccc1Nc1ccccc1" is ___
Result: < 50%
